Entry source: patent US20180105569A1

# System tested: GLP-1 receptor (UniProt P43220 24-463, limits assumed)
# Assay summary: cell-based or functional assay
Numbered stars: 1 amine (or outer) side, 2 acyl side, 3 side chain; on linkers, the order of the positions; unused ones are H or OH. Square brackets hold non-standard residues; d marks the D form. Side chains are listed from the residue outwards. Ends that are not written are not given here. * marks the point of attachment. β2His = Beta2-His (beta2-homo amino acid form of His; γGlu = O=C(O)[C@H](CCC(=O)[*:2])N[*:1]; Desaminohistidyl = O=C(CCc1c[nH]cn1)*; Palmitoyl = CCCCCCCCCCCCCCCC(=O)*
Here the recorded EC50 at GLP-1 Receptor (cAMP luciferase reporter, HEK293) is given for each entry.
Mention the unit after the number when you answer.

See these solved cases before continuing.
[Desaminohistidyl]AQGTFTSDK([γGlu-Palmitoyl])SKYLDERAAQDFVQWLLEGGPSSGAPPPS-NH2 [peptide of SEQ ID NO: 22] ... 3 pM
Ac-[dY]AQGTFTSDK([γGlu-Palmitoyl])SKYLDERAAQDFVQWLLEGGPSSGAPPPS-NH2 [peptide of SEQ ID NO: 12] ... 3 pM
XAQGTFTSDKSKYLDERAAQDFVQWLLEGGPSSGAPPPS (position 1 His; position 2 β-Ala; C-terminal amide; other non-coded or acylated residues as in the sequence listing) [peptide of SEQ ID NO: 26] ... 2 pM

// below: EC50 at GLP-1 Receptor (cAMP luciferase reporter, HEK293) requested for another binder
For [β2His]AQGTFTSDK([γGlu-Palmitoyl])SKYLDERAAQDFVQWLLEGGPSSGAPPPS-NH2 [peptide of SEQ ID NO: 25] , what is its reported EC50 at GLP-1 Receptor (cAMP luciferase reporter, HEK293)?
3 pM
